System: Calu-6 (Non-Small Cell Lung Carcinoma)
Experiment: Bliss excess, mean over the matrix (fraction); higher = more synergy;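 also: after 72 h of two-drug dosing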
property-measured: Bliss excess

Recorded Bliss excess of NC1(C(=O)N[C@@H](CCO)c2ccc(Cl)cc2)CCN(c2ncnc3[nH]ccc23)CC1 [Capivasertib] + C[C@@H]1COCCN1C2=NC(=NC(=C2)C3(CC3)[S@](=N)(=O)C)C4=C5C=CNC5=NC=C4 [AZD6738] (first compound max 10 µM, 7x7, partner max 10 µM) , please.
-0.0777

====

Tested on: ES-2 (Ovarian Carcinoma)
Assay: Bliss excess, mean over the matrix (fraction); higher = more synergy
Categories are assigned from the measured Bliss excess using these intervals: lower: < -0.04; middle: ≥ -0.04 and < 0.0006; upper: ≥ 0.0006

compound	qualitative-label
C=CCn1c(=O)c2cnc(Nc3ccc(N4CCN(C)CC4)cc3)nc2n1-c1cccc(C(C)(C)O)n1 [AZD1775] + C1CN(CCC1(C(=O)N[C@@H](CCO)C2=CC=C(C=C2)Cl)N)C3=NC=NC4=C3C=CN4 [Capivasertib] (first compound max 3 µM, partner max 3 µM)	middle

Lab note: sort C[C@@H](c1ccc2nccn2c1)n1nnc2ncc(-c3cnn(C)c3)nc21 [Savolitinib] + CN(CC[C@H](CSC1=CC=CC=C1)NC2=C(C=C(C=C2)S(=O)(=O)NC(=O)C3=CC=C(C=C3)N4CCC(CC4)[C@H](C5=CC=CC=C5C6=CC=C(C=C6)Cl)O)S(=O)(=O)C(F)(F)F)CCO [AZD4320] (first compound max 1 µM, 7x7, partner max 1 µM) into the matching Bliss excess band.
middle

Exercise: read the entry Cc1c2c(nn1C)CSCc1cc(n(C)n1)CSc1cc(c3ccccc3c1)OCCCc1c(C(=O)O)n(C)c3c-2c(Cl)ccc13 [AZD5991] + CN(C)CCCOc1ccc(-c2ccc3ncc4c(c3c2)n(C2CCOCC2)c(=O)n4C)cn1 [AZD0156] (first compound max 1 µM, 7x7, partner max 1 µM) and state which class it falls under.
upper

For this compound, which bin applies? Cc1cc2ncnn2cc1Nc1ncc2c(n1)n(C1CCOCC1)c(=O)n2C [AZD7648] + CCN(CCO)CCCOc1ccc2c(Nc3cc(CC(=O)Nc4cccc(F)c4)[nH]n3)ncnc2c1 [AZD2811] (first compound max 10 µM, 7x7, partner max 1 µM)
upper

Place this compound in its band: Cn1cnc2c(F)c(Nc3ccc(Br)cc3Cl)c(C(=O)NOCCO)cc21 [Selumetinib] + CC(C)n1c(=O)n(C)c2cnc3cc(F)c(-c4ccc(OCCCN5CCCCC5)nc4)cc3c21 [AZD1390] (first compound max 10 µM, 7x7, partner max 0.3 µM)
middle

State the band of CC(=O)c1c(C)c2cnc(Nc3ccc(N4CCNCC4)cn3)nc2n(C2CCCC2)c1=O [Palbociclib] + CN(CC[C@H](CSC1=CC=CC=C1)NC2=C(C=C(C=C2)S(=O)(=O)NC(=O)C3=CC=C(C=C3)N4CCC(CC4)[C@H](C5=CC=CC=C5C6=CC=C(C=C6)Cl)O)S(=O)(=O)C(F)(F)F)CCO [AZD4320] (first compound max 10 µM, 7x7, partner max 1 µM)
lower

Category of Cc1cc2ncnn2cc1Nc1ncc2c(n1)n(C1CCOCC1)c(=O)n2C [AZD7648] + O=C(c1cc(Cc2n[nH]c(=O)c3ccccc23)ccc1F)N1CCN(C(=O)C2CC2)CC1 [Olaparib] (first compound max 10 µM, 7x7, partner max 10 µM) , please.
middle
